test: Accelerated stability test; format: physicochemical; settings: Month 6; 40°C ± 2°C, relative humidity 75% ± 5%
MEASUREMENT LABEL: Related substances (%)

O=C1Cc2ccccc2C(=C2CCN(CCOCOP(=O)(O)O)CC2)c2ccsc21 [Compound IV-6] | 0.25
O=C1Cc2ccccc2C(=C2CCN(COP(=O)(O)O)CC2)c2ccsc21 [Compound IV-1] | 0.24
O=C1Cc2ccccc2C(=C2CCN(CCOP(=O)(O)O)CC2)c2ccsc21 [Compound IV-2] | 0.09
O=C1Cc2ccccc2C(=C2CCN(CCCOP(=O)(O)O)CC2)c2ccsc21 [Compound IV-3] | 0.25
O=C1Cc2ccccc2C(=C2CCN(CCCCOP(=O)(O)O)CC2)c2ccsc21 [Compound IV-4] | 0.25
O=C1Cc2ccccc2C(=C2CCN(CCCOP(=O)(O)O)CC2)c2ccsc21 [Compound III-3] | 0.34

a: O=C1Cc2ccccc2C(=C2CCN(CCCOCOP(=O)(O)O)CC2)c2ccsc21 [Compound III-7]
b: O=C1Cc2ccccc2C(=C2CCN(CCCCOCOP(=O)(O)O)CC2)c2ccsc21 [Compound IV-8]
Parameter metric = Related substances. Return the lower-valued option from a and b . Indicate your choice by writing its label.
b
